Protocol: folding stability dG unfold from trypsin proteolysis; higher = more stable
Measured folding stability dG unfold determines class: class A: < 0.6 kcal/mol; class B: ≥ 0.6 kcal/mol and < 2 kcal/mol; class C: ≥ 2 kcal/mol

Solved entries (count: 3):
1) SAGGSAGPKVEVELFPVPPFAPGSEFVLLVKTEDGDVILQRFRVKLEGNEPKIEPLGSIVLKPDELSAGGSA [r15_636_TrMRF] :: class B
2) SAGGAPVSVSTSTLPDGRTVTTTTYPSGSTTTTITDPVTGATATASSPGSGTTTFTDPATGATTVVGSAGGS [r16_91_JUSTAS] :: class B
3) SAGGKTIWIPMPPGDPEKFAKNIADEILEEAQKQGENVDVKITIQYPDGQYMRITIDGNGKIDKIVPWSAGG [r13_965_TrROS] :: class A

Would you mind sorting SAGGSMSPALNKKLDVEEITADEEEAKKIAKESKKPVIVTLPDGTVLRFNTDGSVTEYPLPPPELLSAGGSA [r2_34_JUSTAS] into the appropriate category?
class A

Would you mind sorting SAGGGMNISVDPNQSVTIPVTRIENGVPVETTVTISLPAGSTISPEGDNIIINYPHTGQTITLPTTLISAGG [r13_275_JUSTAS] into the appropriate category?
class B

---

Protocol: folding stability dG unfold from chymotrypsin proteolysis; higher = more stable
folding stability dG unfold values, listed per item
All answers are understood in kcal/mol, so give the number only.

Answered examples (5):
1) SAGGSDVKTYTFVGIDPETGELVETTFRVTPLVPPVPVSVSVSLTLDVDPDGNLHLSLSVSVELGGSAGGSA [r2_326_TrMRF] :: 4.74
2) SAAAAVAAAVAATLEALLPPGYRITAVTAEVAPDGTVTIPVTVEGPDGVPTLVVVTVDLATGEITVTVFGSA [r9_219_TrMRF] :: 4.63
3) SAGGSAGGGKRLEITRTYFIPPDDIDKLKDLPGIREVTPHRMPDGYYMITVTIRIPISADQLKASAGGSAGG [r6_155_TrROS] :: 2.1
4) SAGGMKVIELTVDEIKELADKLKENKNLKATIYVNGKKVELEFDTVEDALKALKVKPGDTVLIEIEPSAGGS [r16_377_TrROS_Hall] :: 3.88
5) SAGGSANGKRVEVPITIFFYRRDPEDGKWEPIFPFEIPIRIPVPPGAEVTIEIEFTGNMFRITIEVSAGGSA [r15_537_TrROS] :: 4.53

Entry under review: SAGGSAGGSEKTIKITIKVKVKKKVTVKNKNGEKKTFEFEEKTYTLTTIKFDSKEDALKALKKSAGGSAGGS [r12_452_TrROS_Hall] . Reported folding stability dG unfold?
2.48

---

Protocol: folding stability dG unfold from trypsin proteolysis; higher = more stable
Label rule, in plain words: folding stability dG unfold of 0.4 kcal/mol and up is Fulfilled, under 0.4 kcal/mol is Not fulfilled.

1) SAGGSAGGSAGMIVIETPLSEYEKLKSPDIEVLEKSEGKVVIEIKVPPEPFYDEEGKPLKSAGGSAGGSAGG [r11_828_JUSTAS] :: Fulfilled
2) SAGGSAKLEINIIIPGMPPERAKRKARNIAAELRKQGLPKENIKDVDIKVIVMPWRRDPDNKWKPMSAGGSA [r15_684_TrROS] :: Fulfilled

Record SAGGSAMLKVTERTVEVEVFDEEGNPIGWRERKIVVEDPLSPEPRPPPPPVDPVLAAETLGADVLESAGGSA [r15_572_JUSTAS] ; criterion: folding stability dG unfold no lower than 0.4 kcal/mol. Met?
Not fulfilled

Record SAGGSAGGSAGGGMIPVSTSETVVPGPSRLVRRTTTTYRDPVTGKLYTTSSTTVLPPAASAGGSAGGSAGGS [r10_190_JUSTAS] ; criterion: folding stability dG unfold no lower than 0.4 kcal/mol. Met?
Not fulfilled

Record SAGGSAGGSAGKEYYVVAKVEDPSTGKVTVYVGPFSDFVKTFDPKNSKVEFFLVEKDALKSAGGSAGGSAGG [r11_334_TrMRF] ; criterion: folding stability dG unfold no lower than 0.4 kcal/mol. Met?
Fulfilled

Record SAGGSLVTTEFPGVTITTDPATGVLTVEASPEEVERLIEALGPEFNPVEIRRLPDGSYLLTLPVTPPSAGGS [r8_415_JUSTAS] ; criterion: folding stability dG unfold no lower than 0.4 kcal/mol. Met?
Fulfilled

FYI, the data here is from the supplement of paper PMC12764529.
